B1: CPEB3 Ribozyme (parent)
chain: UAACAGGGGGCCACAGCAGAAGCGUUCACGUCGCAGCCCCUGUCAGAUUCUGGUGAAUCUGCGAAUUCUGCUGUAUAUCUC

variants of: B1; assay: self-cleavage, relative activity (ratio to wild type); higher = more cleavage; in vitro, sequencing
Threshold check on self-cleavage: at or above 0.2 gives Y, strictly below gives N.

As a guide, the following entries are already answered.
[in] API: above_or_equal(metric=self-cleavage, cutoff=0.2) for item C12U U67C
[out] Y

[in] API: above_or_equal(metric=self-cleavage, cutoff=0.2) for item U60C A75C
[out] Y

[in] API: above_or_equal(metric=self-cleavage, cutoff=0.2) for item G10U A56G
[out] N

Next:
[in] API: above_or_equal(metric=self-cleavage, cutoff=0.2) for item G16U A45G
[out] Y

[in] API: above_or_equal(metric=self-cleavage, cutoff=0.2) for item G22C A75U
[out] Y

[in] API: above_or_equal(metric=self-cleavage, cutoff=0.2) for item C44U C79U
[out] N

The reported measurements were obtained from the RNAGym collection of RNA variant scans (doi:10.1093/nar/gkz1192).
